Provide the recorded half-life for the entries that follow.
assay: Stability assessment of test compounds in aqueous buffers (half-lives); details: buffer, pH 10.2, half-lives t 1/2 ± s(t 1/2), PPB (phosphate buffer 80 mM) pH 10.2
Write the answer as a number in min, unit excluded.

Ask: I would be grateful if you could share the reported half-life for O=C=Nc1ccc(Cc2ccc(N=C=O)cc2)cc1 [A4, 4,4′-methylene diphenyl diisocyanate] .
Result: 4.6

Ask: I would be grateful if you could share the reported half-life for C=CC(=O)OC [F2, methyl acrylate] .
Result: 943

Ask: I would be grateful if you could share the reported half-life for C=CC(=O)OCCCC [F3, butyl acrylate] .
Result: 4250

Ask: I would be grateful if you could share the reported half-life for C=C(C)C(=O)OC [F5, methyl methacrylate] .
Result: 1880

====

assay: physchem; details: buffer, pH 10.2, half-lives t 1/2 ± s(t 1/2), AAP (ammonium acetate buffer 100 mM) pH 10.2
readoutLabel: half-life

Ask: I would be grateful if you could share the reported half-life for Clc1nc(Cl)nc(Cl)n1 [E2, 2,4,6-trichloro-1,3,5-triazine] .
Result: < 1 min

Ask: I would be grateful if you could share the reported half-life for O=C=Nc1ccc(Cc2ccc(N=C=O)cc2)cc1 [A4, 4,4′-methylene diphenyl diisocyanate] .
Result: < 1 min

Ask: I would be grateful if you could share the reported half-life for C=CC(=O)OC [F2, methyl acrylate] .
Result: 629 min

Ask: I would be grateful if you could share the reported half-life for O=[N+]([O-])c1ccc(S(=O)(=O)Cl)c([N+](=O)[O-])c1 [E1, 2,4-dinitrobenzenesulfonyl chloride] .
Result: < 1 min

Ask: I would be grateful if you could share the reported half-life for O=C=Nc1cccc2c(N=C=O)cccc12 [A2, 1,5-naphthalene diisocyanate] .
Result: < 1 min

Ask: I would be grateful if you could share the reported half-life for O=C1OC(=O)c2c(Cl)c(Cl)c(Cl)c(Cl)c21 [C3, tetrachlorophthalic anhydride] .
Result: < 1 min

Ask: I would be grateful if you could share the reported half-life for Cc1c(N=C=O)cccc1N=C=O [A3, 2,6-toluene diisocyanate] .
Result: < 1 min

Ask: I would be grateful if you could share the reported half-life for `O=[N+]([O-])c1ccc(F)c([N+](=O)[O-])c1` .
Result: 73.2 min

Ask: I would be grateful if you could share the reported half-life for O=C1C=CC(=O)O1 [C4, maleic anhydride] .
Result: < 1 min

Ask: I would be grateful if you could share the reported half-life for C=C(C)C(=O)OC [F5, methyl methacrylate] .
Result: 3060 min

Ask: I would be grateful if you could share the reported half-life for O=C1OC2(c3ccc(O)cc3Oc3cc(O)ccc32)c2ccc(N=C=S)cc21 [B3, fluorescein isothiocyanate] .
Result: 8.21 min

Ask: I would be grateful if you could share the reported half-life for O=C=Nc1ccccc1 [A5, phenyl isocyanate] .
Result: < 1 min

Ask: I would be grateful if you could share the reported half-life for C=CC(=O)OCCCC [F3, butyl acrylate] .
Result: 929 min

Ask: I would be grateful if you could share the reported half-life for CC12CC=CCC1C(=O)OC2=O (centres unmarked) [D2, methyltetrahydrophthalic anhydride] .
Result: < 1 min

====

assay: DPRA-like chemoassay with Lys-pNA (24 h percent depletion); conditions: PPB pH 10.2, 24 h, 25 °C, 50-fold excess of test compound
Provide the recorded D Lys ± s(D Lys), 24 h percent depletion of Lys-pNA for the entries that follow.
Write the answer as a number in %, unit excluded.

Ask: I would be grateful if you could share the reported D Lys ± s(D Lys), 24 h percent depletion of Lys-pNA for O=C1OC(=O)c2c(Cl)c(Cl)c(Cl)c(Cl)c21 [C3, tetrachlorophthalic anhydride] .
Result: 99.2

Ask: I would be grateful if you could share the reported D Lys ± s(D Lys), 24 h percent depletion of Lys-pNA for O=C=Nc1ccc(Cc2ccc(N=C=O)cc2)cc1 [A4, 4,4′-methylene diphenyl diisocyanate] .
Result: 100

Ask: I would be grateful if you could share the reported D Lys ± s(D Lys), 24 h percent depletion of Lys-pNA for O=C=Nc1cccc2c(N=C=O)cccc12 [A2, 1,5-naphthalene diisocyanate] .
Result: 100

Ask: I would be grateful if you could share the reported D Lys ± s(D Lys), 24 h percent depletion of Lys-pNA for O=C=Nc1ccccc1 [A5, phenyl isocyanate] .
Result: 100

Ask: I would be grateful if you could share the reported D Lys ± s(D Lys), 24 h percent depletion of Lys-pNA for Cc1ccc(N=C=O)cc1N=C=O [A1, 2,4-Toluene diisocyanate] .
Result: 100

Ask: I would be grateful if you could share the reported D Lys ± s(D Lys), 24 h percent depletion of Lys-pNA for C=CC(=O)OCC [F4, ethyl acrylate] .
Result: 67.1

Ask: I would be grateful if you could share the reported D Lys ± s(D Lys), 24 h percent depletion of Lys-pNA for `O=[N+]([O-])c1ccc(F)c([N+](=O)[O-])c1` .
Result: 100

Ask: I would be grateful if you could share the reported D Lys ± s(D Lys), 24 h percent depletion of Lys-pNA for CC12CC=CCC1C(=O)OC2=O (centres unmarked) [D2, methyltetrahydrophthalic anhydride] .
Result: 100

Ask: I would be grateful if you could share the reported D Lys ± s(D Lys), 24 h percent depletion of Lys-pNA for O=C(O)c1ccc2c(c1)C(=O)OC2=O [C2, trimellitic anhydride] .
Result: 100

Ask: I would be grateful if you could share the reported D Lys ± s(D Lys), 24 h percent depletion of Lys-pNA for `O=[N+]([O-])c1ccc(S(=O)(=O)O)c([N+](=O)[O-])c1` .
Result: 0

Ask: I would be grateful if you could share the reported D Lys ± s(D Lys), 24 h percent depletion of Lys-pNA for Clc1nc(Cl)nc(Cl)n1 [E2, 2,4,6-trichloro-1,3,5-triazine] .
Result: 100

Ask: I would be grateful if you could share the reported D Lys ± s(D Lys), 24 h percent depletion of Lys-pNA for O=C1OC(=O)C2C3C=CC(C3)C12 (centres unmarked) [C5, himic anhydride] .
Result: 98.9

Ask: I would be grateful if you could share the reported D Lys ± s(D Lys), 24 h percent depletion of Lys-pNA for O=C1C=CC(=O)O1 [C4, maleic anhydride] .
Result: 100

Ask: I would be grateful if you could share the reported D Lys ± s(D Lys), 24 h percent depletion of Lys-pNA for C=CC(=O)OC [F2, methyl acrylate] .
Result: 67.9

Ask: I would be grateful if you could share the reported D Lys ± s(D Lys), 24 h percent depletion of Lys-pNA for C=CC(=O)OCCCC [F3, butyl acrylate] .
Result: 74.4

Ask: I would be grateful if you could share the reported D Lys ± s(D Lys), 24 h percent depletion of Lys-pNA for Cc1c(N=C=O)cccc1N=C=O [A3, 2,6-toluene diisocyanate] .
Result: 100

Ask: I would be grateful if you could share the reported D Lys ± s(D Lys), 24 h percent depletion of Lys-pNA for O=C1OC(=O)c2ccccc21 [C1, phthalic anhydride] .
Result: 100

Ask: I would be grateful if you could share the reported D Lys ± s(D Lys), 24 h percent depletion of Lys-pNA for C=C(C)C(=O)OC [F5, methyl methacrylate] .
Result: 2.6

Ask: I would be grateful if you could share the reported D Lys ± s(D Lys), 24 h percent depletion of Lys-pNA for O=C1OC2(c3ccc(O)cc3Oc3cc(O)ccc32)c2ccc(N=C=S)cc21 [B3, fluorescein isothiocyanate] .
Result: 100

Ask: I would be grateful if you could share the reported D Lys ± s(D Lys), 24 h percent depletion of Lys-pNA for O=C=NCCCCCCN=C=O [B1, hexamethylene diisocyanate] .
Result: 98.7

====

assay: Stability assessment of test compounds in aqueous buffers (half-lives); conditions: aqueous ammonium acetate buffer with acetonitrile, pH 10.2
readoutLabel: half-life

Ask: I would be grateful if you could share the reported half-life for Cc1ccc(S(=O)(=O)NCl)cc1 [G2, chloramine T] .
Result: 58.5 min

Ask: I would be grateful if you could share the reported half-life for O=C1OC(=O)c2ccccc21 [C1, phthalic anhydride] .
Result: < 1 min

Ask: I would be grateful if you could share the reported half-life for O=C1OC(=O)C2CCCCC12 (stereo not drawn) [D1, hexahydrophthalic anhydride] .
Result: < 1 min

Ask: I would be grateful if you could share the reported half-life for O=C(O)c1ccc2c(c1)C(=O)OC2=O [C2, trimellitic anhydride] .
Result: < 1 min

Ask: I would be grateful if you could share the reported half-life for O=C1OC(=O)C2C3C=CC(C3)C12 (stereo not drawn) [C5, himic anhydride] .
Result: < 1 min

Ask: I would be grateful if you could share the reported half-life for C=CC(=O)OCC [F4, ethyl acrylate] .
Result: 880 min
